Origin of measurements: the NIST ThermoML archive (doi:10.1016/j.jct.2009.07.002)

test_details: isobaric coefficient of expansion
run_conditions: 348.15 K; 50000 kPa; Liquid; DSC with Pressure Shift
parameter_measured: isobaric coefficient of expansion

Some entries whose results are on file:
compound: CCCCCO
test_result: 0.000787 1/K

compound: CCCCCCCCCCO
test_result: 0.000708 1/K

compound: CCCCCN
test_result: 0.00093 1/K

So what's the measured isobaric coefficient of expansion for this one? CCCO
0.000885 1/K

Try this compound too: CCO
0.000938 1/K

Try this compound too: CCC(O)CC
0.00096 1/K

Try this compound too: CCCCCCCCO
0.000731 1/K

Try this compound too: CCCCCCO
0.000772 1/K

Try this compound too: CCCCCCCCCO
0.000719 1/K

Try this compound too: CCCC(C)O (stereo unspecified)
0.000923 1/K

Try this compound too: CCCCCCCO
0.000752 1/K
